Recorded values, source ChEMBL document CHEMBL1201862.

System: CCRF-CEM
Experiment: NCI tumour cell line growth inhibition, 48 h
The source made the active and inactive calls. No stated cut-off is given here; in the data, active = GI50 up to about 1.1 µM and inactive = higher. Bridge positions count the residues as written; N and C are the ends. Square brackets hold non-standard residues; d marks the D form. Peptide text beside a SMILES is read from it. * marks the point of attachment. Cya = N[CH](CS(=O)(=O)O)C(=O)O; X49 = CC(C)CCCCCCCC(O)CC(=O)*; GABA = NCCCC(=O)O
Experimental readout: GI50

# Compound, Test system, GI50
measured = [
    ("O=c1[nH]cc(COCCO)c(=O)[nH]1", "CCRF-CEM", "> 100 µM (inactive)"),
    ("CC(C)CCCCCCCC(O)CC(=O)NC(CS(=O)(=O)O)C(=O)NC(CC(C)C)C(=O)NCCCC(=O)NC(Cc1c[nH]cn1)C(=O)NC(C)C(=O)NC1C(=O)NC(C(C)O)C(=O)NC(Cc2c[nH]cn2)C(=O)NC(C)C(=O)NC(C(C)O)C(=O)OC1C (stereo unspecified) (X49-[Cya]L[GABA]HATTHAT; ester 6-C; configuration not given here)", "CCRF-CEM", "> 25 µM (inactive)"),
    ("Cc1ccccc1C1=C(C(=O)Nc2ccc(Cl)c(Cl)c2)NC(=S)NC1N (stereo unspecified)", "CCRF-CEM", "> 100 µM (inactive)"),
    ("COCCCN(Cc1cc(OC)c(OC)c(OC)c1)C(=S)Nc1cccc(Cl)c1", "CCRF-CEM", "25.3 µM (inactive)"),
    ("COCCCCCC(=O)CP(=O)(OC)OC", "CCRF-CEM", "> 100 µM (inactive)"),
    ("Cc1ccccc1C1=[N+]([O-])c2ccccc2C1=O", "CCRF-CEM", "18.5 µM (inactive)"),
]

// query Report GI50 from CCRF-CEM testing of CCOC(=O)C1c2[nH]c3ccccc3c2CCN1C(=O)c1ccco1 (stereo unspecified)
// result > 10 µM (inactive)

// query Report GI50 from CCRF-CEM testing of `COc1cc2cnc3c4cc(O)ccc4ccc3c2cc1OC`
// result 29.9 µM (inactive)

###

System: K562
Test: NCI tumour cell line growth inhibition, 48 h
Active and inactive are the calls of the source. Cut-off read from the data, not from the text of the source: active = GI50 up to about 1.1 µM and inactive = higher.
Experimental readout: GI50

Please review the entries below; each comes with its answer.
# Compound, GI50
records = [
    ("O=C1Nc2ccc([N+](=O)[O-])cc2/C1=N/NC(=S)Nc1ccccc1", "4.92 µM (inactive)"),
    ("O=C(CC(=O)c1ccccc1)C(=O)NC12CC3CC(CC(C3)C1)C2", "> 56.9 µM (inactive)"),
    ("CC(=O)NC1C(OCc2ccccc2)OC(CO)C(O)C1OC(C)C(=O)NC(C)C(=O)NC(CCC(=O)NCCCNc1c2ccccc2nc2cccc([N+](=O)[O-])c12)C(N)=O (stereo not given)", "1.17 µM (inactive)"),
    ("O=c1c(Cc2ccccc2)c(O)cc2n1CCC2", "> 100 µM (inactive)"),
]

// query For the compound CC(C)=CCC12Cc3ccc(O)cc3C(C(C)CN1)C2C (stereo not given) , give its reported GI50.
// result 34.4 µM (inactive)

###

Test system: PC-3
Test: NCI tumour cell line growth inhibition, 48 h
Active and inactive are the calls of the source. Rule as the data show it: active = GI50 up to about 1.1 µM and inactive = higher.
Reported GI50 values for the following compounds.

Please review the entries below; each comes with its answer.
# Compound, Test system, Assay value
records = [
    ("Nc1ccc(/N=N/c2ccccc2)cc1", "PC-3", "56.8 µM (inactive)"),
    ("CC(C)=CCC/C(C)=C/Cc1cc(/C=C/c2cc(O)c(CC=C(C)C)c(O)c2)cc(O)c1O [MAPPAIN]", "PC-3", "3.36 µM (inactive)"),
    ("CC1(C)OCC([C@H]2O[C@@H](CC(=S)NCCCCCCCCCCCCNC(=S)C[C@H]3O[C@@H](C4COC(C)(C)O4)[C@H]4OC(C)(C)O[C@H]43)[C@H]3OC(C)(C)O[C@H]32)O1 (stereo partly specified)", "PC-3", "25.5 µM (inactive)"),
    ("O=C(/C=C/c1ccc(Cl)cc1)c1ccc(Cl)s1", "PC-3", "63 µM (inactive)"),
    ("CC(CO)CCNc1ncnc2c1ncn2CCC(=O)OC(C)(C)C (stereo unspecified)", "PC-3", "> 100 µM (inactive)"),
]

// query For the compound `NC(=O)Nc1ccc(C(=O)NCCCNC(=O)c2ccc(NC(N)=O)cc2)cc1` , give its reported GI50.
// result > 100 µM (inactive)
